experiment: physchem
Description: Solubility of the compound
Listed here: items and their measured solubility.
Number only, in µg/mL; omit the unit.

Solved entries:
>>> meas_value("COCCOC(=O)N1CCC(C(NS(=O)(=O)c2ccc(-c3ccc(SC)cc3)cc2)C(=O)O)CC1 (centres undefined)")
3500
>>> meas_value("COc1ccc(-c2ccc(S(=O)(=O)NC(C(=O)O)C3CCN(C(=O)OC(C)C)CC3)cc2)cc1 (centres undefined)")
130
>>> meas_value("COCCOC(=O)N1CCC(C(NS(=O)(=O)c2ccc(-c3ccc(OC)cc3)cc2)C(=O)O)CC1 (stereo in doubt; 13g)")
8070

Now for a further compound.
Entry COCCOC(=O)N1CCC(C(C(=O)O)N(CCOC)S(=O)(=O)c2ccc(-c3ccc(OC)cc3)cc2)CC1 (centres undefined) has what solubility?
11100
